# protocol: Solubility in 50 mM phosphate buffer (HPLC)
# settings: 50 mM phosphate buffer, pH 9, aqueous buffer, thermodynamic from solid
readoutKind: solubility at 20 min (µM)

[
  {
    "smilesText": "N/C(=N\\O)c1ccc(OCCCCCOc2ccc(/C(N)=N/O)cc2)cc1",
    "readoutKind": "solubility at 20 min",
    "assayResult": 4
  }
]

###

# protocol: Solubility in 50 mM phosphate buffer (HPLC)
# settings: pH 2.0
readoutKind: Solubility (mM)

[
  {
    "molecule": "NC(=NO)c1ccc(OCCCCCOc2ccc(C(N)=NO)cc2)cc1 [N,N′-bis(dihydroxy)pentamidine]",
    "readoutKind": "Solubility",
    "comparator": ">",
    "assayResult": 35
  },
  {
    "molecule": "CON=C(N)c1ccc(OCCCCCOc2ccc(C(N)=NOC)cc2)cc1",
    "readoutKind": "Solubility",
    "comparator": "=",
    "assayResult": 1.304
  },
  {
    "molecule": "N=C(N)c1ccc(OCCCCCOc2ccc(C(N)=NO)cc2)cc1",
    "readoutKind": "Solubility",
    "comparator": "=",
    "assayResult": 22.285
  },
  {
    "molecule": "CC(C)[C@H](N)C(=O)O/N=C(\\N)c1ccc(OCCCCCOc2ccc(/C(N)=N/OC(=O)[C@@H](N)C(C)C)cc2)cc1",
    "readoutKind": "Solubility",
    "comparator": ">",
    "assayResult": 35
  },
  {
    "molecule": "CC(=O)ON=C(N)c1ccc(OCCCCCOc2ccc(C(N)=NOC(C)=O)cc2)cc1",
    "readoutKind": "Solubility",
    "comparator": "=",
    "assayResult": 0.014
  }
]

###

# protocol: Solubility in 50 mM phosphate buffer (HPLC)
# settings: pH 9.0
Would you mind labelling by Solubility? At or over 20 µM is criterion met, under is criterion not met.

[
  {
    "molecule": "CC(C)[C@H](N)C(=O)O/N=C(\\N)c1ccc(OCCCCCOc2ccc(/C(N)=N/OC(=O)[C@@H](N)C(C)C)cc2)cc1 [N,N′-bis(valoxy)pentamidine]",
    "className": "criterion met"
  },
  {
    "molecule": "NC(=NO)c1ccc(OCCCCCOc2ccc(C(N)=NO)cc2)cc1 [N,N′-bis(dihydroxy)pentamidine]",
    "className": "criterion met"
  },
  {
    "molecule": "N=C(N)c1ccc(OCCCCCOc2ccc(C(N)=NO)cc2)cc1 [Pentamidine monoamidoxime]",
    "className": "criterion met"
  },
  {
    "molecule": "CON=C(N)c1ccc(OCCCCCOc2ccc(C(N)=NOC)cc2)cc1 [N,N′-bis(methoxy)pentamidine]",
    "className": "criterion not met"
  },
  {
    "molecule": "CC(=O)ON=C(N)c1ccc(OCCCCCOc2ccc(C(N)=NOC(C)=O)cc2)cc1 [N,N′-bis(acetoxy)pentamidine]",
    "className": "criterion not met"
  }
]

###

# protocol: Solubility in 50 mM phosphate buffer (HPLC)
# settings: pH 7.4
readoutKind: log10 of Solubility (log10 of the value in µM)

[
  {
    "molecule": "CC(=O)ON=C(N)c1ccc(OCCCCCOc2ccc(C(N)=NOC(C)=O)cc2)cc1",
    "log10 of Solubility": 0.30
  },
  {
    "molecule": "NC(=NO)c1ccc(OCCCCCOc2ccc(C(N)=NO)cc2)cc1 [N,N′-bis(dihydroxy)pentamidine]",
    "log10 of Solubility": 1.98
  },
  {
    "molecule": "N=C(N)c1ccc(OCCCCCOc2ccc(C(N)=NO)cc2)cc1",
    "log10 of Solubility": 3.14
  },
  {
    "molecule": "N=C(NOC(=O)CCC(=O)O)c1ccc(OCCCCCOc2ccc(C(=N)NOC(=O)CCC(=O)O)cc2)cc1 [N,N′-bis(succinyloxy)pentamidine (1)]",
    "log10 of Solubility": 3.88
  },
  {
    "molecule": "CC(C)[C@H](N)C(=O)O/N=C(\\N)c1ccc(OCCCCCOc2ccc(/C(N)=N/OC(=O)[C@@H](N)C(C)C)cc2)cc1",
    "log10 of Solubility": 2.20
  },
  {
    "molecule": "CON=C(N)c1ccc(OCCCCCOc2ccc(C(N)=NOC)cc2)cc1",
    "log10 of Solubility": 0.90
  }
]
